# Test system: SARS-CoV-2 (USA-WA1/2020) replicon in HuH-7 cells
# Type: cell-based
Property Measured: EC50

Enquiry: Form field: reported EC50 of CC(C)(C)[C@H](NC(=O)C(F)(F)F)C(=O)N1C[C@H]2[C@@H]([C@H]1C(=O)N[C@H](C#N)C[C@@H]1CCNC1=O)C2(C)C
Return: 15 nM

Ref: paper PMC11294338
